Entry source: patent US20220348571A1

- protocol-notes: Cytotoxicity determination in HepG2.2.15 cells (CCK-8)
- Format: cell-based
- assay-context: human, 6 days treatment, CCK-8, highest concentration 100 uM
- Method: Example 2: Anti-Viral Assay in HepG2.2.15 Cells 1.1. […] After 6 days of compounds treatment, add 20 μl CCK-8 reagents to each well of cytotoxicity assay plates, incubate the plate at 37° C., 5% CO2 for 2.5 h and measure the absorbance at 450 nm wavelength, at the same time read the absorbance at 630 nm wavelength as reference. 2.2. DATA Analysis EC50 and CC50 values are calculated by the GRAPHPAD PRISM software.

>  <compound>
CCOC(=O)Cc1coc([C@H]2CC[C@H](C3=C(C(=O)OCC)C(c4ccc(F)c(F)c4Cl)N=C(c4nccs4)N3)CC2)n1 (single isomer, unassigned)

>  <CC50 at 6 days [µM]>
8.18

$$$$
>  <compound>
CCOC(=O)C1=C(C2CCN(c3ncc(C(=O)O)c(OC)n3)CC2)NC(c2nccs2)=NC1c1ccc(F)c(F)c1Cl (single isomer, unassigned)

>  <CC50 at 6 days [µM]>
5.59

$$$$
>  <compound>
COC(=O)C1=C(C2CCN(c3ncc(C)c(C(=O)O)n3)CC2)NC(c2nccs2)=NC1c1cccc(F)c1C (single isomer, unassigned)

>  <CC50 at 6 days [µM]>
25.8

$$$$
